Where do these numbers come from? They come from patent US20260275249A1.

# assay-protocol: Stability of bleach catalysts: UV-vis absorbance of solutions at pH 11
# Format: physicochemical
# stated-conditions: t = 48 h, 0.28 mM in 50 wt. % water / 50 wt. % acetone

molecule	Appearance
O=S1(=O)N=C(c2cccnc2)c2ccccc21	Transparent
O=S1(=O)N=C(c2ccccn2)c2ccccc21	Transparent
O=S1(=O)N=C(c2ccccc2)c2ccccc21 [Bleach catalyst B, 3-phenyl-1,2-benzisothiazole-1,1-dioxide]	Transparent
CC(C)(C)C1=NS(=O)(=O)c2ccccc21	Transparent

====

# assay-protocol: Stability of bleach catalysts: UV-vis absorbance of solutions at pH 11
# Format: physicochemical
# stated-conditions: t = 48 h, 0.28 mM in 50 wt. % water / 50 wt. % acetone
property: Absorption at 445 nm

Solved cases below.
molecule	reported
CC1=NS(=O)(=O)c2ccccc21 [Bleach catalyst A, 3-methyl-1,2-benzisothiazole-1,1-dioxide]	0.37
O=S1(=O)N=C(c2cccnc2)c2ccccc21 [Bleach catalyst 2]	<0.05
CC(C)(C)C1=NS(=O)(=O)c2ccccc21 [Bleach catalyst C]	<0.05

stdin: Could you tell me which Absorption at 445 nm is on file for O=S1(=O)N=C(c2ccccn2)c2ccccc21 [Bleach catalyst 1] ?
stdout: <0.05

stdin: Could you tell me which Absorption at 445 nm is on file for O=S1(=O)N=C(c2ccccc2)c2ccccc21 [Bleach catalyst B, 3-phenyl-1,2-benzisothiazole-1,1-dioxide] ?
stdout: <0.05
